Molecular target: uridine-cytidine kinase (Mus musculus)
Assay: Binding affinity to uridine kinase from L1210. was determined from the dixon plot
property label: pKi
Recall that pKi is obtained by taking minus log10 of the concentration measured in molar.

Form: compound = O=c1ccn([C@@H]2C=C(CO)[C@@H](O)[C@H]2O)c(=O)[nH]1 ; pKi = 3.64
